# Protocol Summary: Solubility in various media at 25° C. after 24 hours equilibration (UPLC)
# Format: physicochemical
# Test Conditions: 0.01N HCl pH 2.0; after 24 hours equilibration

- Compound: "Cc1nc(C)c(C(=O)Nc2ccc(F)c(-c3nc4ncc(-c5ncccc5C)cn4n3)c2)o1 [Amorphous Compound I Fumaric Acid (2:1)]"
  final pH of the sample (in parentheses): "(2.0)"
- Compound: "Cc1nc(C)c(C(=O)Nc2ccc(F)c(-c3nc4ncc(-c5ncccc5C)cn4n3)c2)o1 [Form B]"
  final pH of the sample (in parentheses): "(2.1)"
- Compound: "Cc1nc(C)c(C(=O)Nc2ccc(F)c(-c3nc4ncc(-c5ncccc5C)cn4n3)c2)o1 [Free Form]"
  final pH of the sample (in parentheses): 2.10
- Compound: "Cc1nc(C)c(C(=O)Nc2ccc(F)c(-c3nc4ncc(-c5ncccc5C)cn4n3)c2)o1 [Compound I Fumaric Acid Co-crystal (2:1)]"
  final pH of the sample (in parentheses): "(1.9)"
- Compound: "Cc1nc(C)c(C(=O)Nc2ccc(F)c(-c3nc4ncc(-c5ncccc5C)cn4n3)c2)o1 [Amorphous Compound I Fumaric Acid (1:1)]"
  final pH of the sample (in parentheses): "(2.1)"

###

# Protocol Summary: Solubility in various media at 25° C. after 24 hours equilibration (UPLC)
# Format: physicochemical
# Test Conditions: 0.01N HCl pH 2.0; 25° C., 24 hours equilibration

- Compound: "Cc1nc(C)c(C(=O)Nc2ccc(F)c(-c3nc4ncc(-c5ncccc5C)cn4n3)c2)o1 [Amorphous Compound I Fumaric Acid (2:1)]"
  Readout Unit: "µg/mL"
  solubility: 9
- Compound: "Cc1nc(C)c(C(=O)Nc2ccc(F)c(-c3nc4ncc(-c5ncccc5C)cn4n3)c2)o1 [Amorphous Compound I Fumaric Acid (1:1)]"
  Readout Unit: "µg/mL"
  solubility: 36
- Compound: "Cc1nc(C)c(C(=O)Nc2ccc(F)c(-c3nc4ncc(-c5ncccc5C)cn4n3)c2)o1 [Compound I Fumaric Acid Co-crystal (2:1)]"
  Readout Unit: "µg/mL"
  solubility: 5
- Compound: "Cc1nc(C)c(C(=O)Nc2ccc(F)c(-c3nc4ncc(-c5ncccc5C)cn4n3)c2)o1 [Form B]"
  Readout Unit: "µg/mL"
  solubility: 21

###

# Protocol Summary: Solubility in various media at 25° C. after 24 hours equilibration (UPLC)
# Type: physicochemical
# Test Conditions: thermodynamic from solid; FeSSIF pH 5.8; 25° C., 24 hours equilibration

- Compound: "Cc1nc(C)c(C(=O)Nc2ccc(F)c(-c3nc4ncc(-c5ncccc5C)cn4n3)c2)o1 [Compound I Fumaric Acid Co-crystal (2:1)]"
  Readout Unit: "µg/mL"
  solubility at 24 h: 17
